These data points were gathered from patent US20180244777A1.

Consider the following binders and their measured Fold increase in CD69 expression [MFI normalized to neg. ctrl.], 1.25 µg/ml anti-CD3 IgG readings.
# TESTED_SYSTEM: human CD3ε expressed on the cell surface of T cells (Jurkat cells; human CD8+ T cells) (human, UniProt P07766 23-207)
# PROTOCOL_DESCRIPTION: cell-based or functional assay
# unit: fold | format: bare number

{"BINDER": "clone-04 (antibody, V domains shown, Recombinant rabbit IgG; also called Clone 4) VH: QSLEESGGRLVKPDETLTLTCTVSGFPLSSYAMGWFRQAPGKGLEWIGMILRSDNTYYASWAKGRFTISKTSTTVDLKITSPTTEDTATYFCARRHYNASGNPIAIGDLWGPGTLVTVSS VL: AQVLTQTPSSVSAAVGGTVTINCQSSQSVYNNNRLSWFQQKPGQPPKLLIYTTSSLASGVPSRFKGSGSGTEFTLTISDLECADAATYYCQGEFSCSRADCFNFGGGTEVVVKG", "RECORDED_RESULT": 2.6}

// below: Fold increase in CD69 expression [MFI normalized to neg. ctrl.], 1.25 µg/ml anti-CD3 IgG requested for another binder
Kindly note the recorded Fold increase in CD69 expression [MFI normalized to neg. ctrl.], 1.25 µg/ml anti-CD3 IgG for clone-10 (antibody, V domains shown, Recombinant rabbit IgG) VH: QSLEESGGRLVTPGTPLTLTCTVSGFPLSSFAMLWVRQAPGKGLEWIGMIMRAHNMYYASWAKGRFTISKTSTTVDLEITSPTTEDTATYFCARRHYNTYGYPIAIGDLWGPGTLVTVSS VL: AQVLTQTPSSVSAAVGGTATISCQSNENIYSNNRLSWFQQKAGQPPNQLIYSASSLASGVPSRFKGSGSGTQFTLTISDLECDDAATYYCQGEFSCSSADCFTFGGGTEVVVKG , which is 2.6
